- Tgt: Gal(b1-3)GalNAc
- Experiment Notes: glycan array binding signal (z-score within array); higher = stronger binding
- Assay Setup: glycan notation: IUPAC condensed, linker removed
About 410 targets per protein were measured; listed, in parts, are those with the strongest signals and a random draw of the rest.
Metric: glycan array binding signal (z-score)
Write the number on its own, no unit after it.

Study these solved cases before continuing.
| Binder | glycan array binding signal (z-score) |
| --- | --- |
| CSA (Cytisus scoparius), P29257 (protein) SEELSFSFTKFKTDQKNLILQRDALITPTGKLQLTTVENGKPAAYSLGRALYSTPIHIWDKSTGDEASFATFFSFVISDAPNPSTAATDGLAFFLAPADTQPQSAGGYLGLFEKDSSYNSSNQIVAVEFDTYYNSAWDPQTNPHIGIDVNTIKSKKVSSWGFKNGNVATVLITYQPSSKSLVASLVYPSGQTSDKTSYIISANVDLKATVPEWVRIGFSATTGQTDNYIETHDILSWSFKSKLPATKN | -0.159 |
| VLRB.aGPA.23-GCN4-biotin (Petromyzon marinus) (protein) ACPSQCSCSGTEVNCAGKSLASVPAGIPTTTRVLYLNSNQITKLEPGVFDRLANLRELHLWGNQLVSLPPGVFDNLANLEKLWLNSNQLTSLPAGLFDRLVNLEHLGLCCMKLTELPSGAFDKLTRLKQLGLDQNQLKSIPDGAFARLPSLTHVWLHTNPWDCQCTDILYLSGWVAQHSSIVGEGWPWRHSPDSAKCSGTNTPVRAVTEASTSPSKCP | 0.232 |
| CCL1 (Coprinopsis cinerea) (protein) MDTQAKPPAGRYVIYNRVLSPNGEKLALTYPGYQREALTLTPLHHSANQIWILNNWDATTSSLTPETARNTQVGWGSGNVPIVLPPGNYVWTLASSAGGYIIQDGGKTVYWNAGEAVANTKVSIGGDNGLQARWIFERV | -0.163 |

Continue with the next binder.
Task item: Recorded glycan array binding signal (z-score) for EUL D1A first (Oryza sativa) (protein) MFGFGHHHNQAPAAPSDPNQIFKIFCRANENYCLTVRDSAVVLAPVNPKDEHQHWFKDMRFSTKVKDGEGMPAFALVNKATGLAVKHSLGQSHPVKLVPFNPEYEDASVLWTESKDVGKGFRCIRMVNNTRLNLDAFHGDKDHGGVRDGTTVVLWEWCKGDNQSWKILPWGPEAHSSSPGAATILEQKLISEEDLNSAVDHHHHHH , please?
Reply: -0.735
